Test system: Escherichia coli TOP10;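 note: peptides expressed intracellularly from a pBAD plasmid library in pooled LB shake-flask culture, induced with 0.3% L-arabinose, DNA abundance read by NGS, three biological replicates, DESeq2 with apeglm shrinkage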
Assay explanation: shrunken log2 fold change of peptide-encoding DNA abundance (4.5 h post-induction vs induction); higher = less antimicrobial activity (less host growth inhibition)
Cond: time post-induction: 4.5 h; library: site-saturation at positions 5, 18, 19, 20
Rule: shrunken log2 fold change under -0.1 gives 0.0, otherwise 1.0.

For this sequence, is measured shrunken log2 fold change -0.1 or higher? RRIRGRPPRLPRPRPRPYSKPRP 0.0

Reported shrunken log2 fold change at or above -0.1? RRIRQRPPRLPRPRPRPYIYPRP 1.0

Check this sequence for shrunken log2 fold change at or above -0.1: RRIRKRPPRLPRPRPRPAIPPRP 1.0

Is shrunken log2 fold change at least -0.1? Consider RRIRQRPPRLPRPRPRPWNAPRP 1.0

Confirm if shrunken log2 fold change reported for the sequence RRIRTRPPRLPRPRPRPLKDPRP is -0.1 or above. 1.0

Reported shrunken log2 fold change reaches at least -0.1 for RRIRFRPPRLPRPRPRPIGKPRP ? 1.0

Identify whether the reported shrunken log2 fold change of the following sequence is -0.1 or greater: RRIRSRPPRLPRPRPRPVFQPRP 0.0

Determine whether measured shrunken log2 fold change meets or exceeds -0.1 for RRIRIRPPRLPRPRPRPAEDPRP 1.0

Is shrunken log2 fold change for RRIRIRPPRLPRPRPRPCACPRP at or above -0.1? 0.0

Decide: is the reported value of shrunken log2 fold change for RRIRHRPPRLPRPRPRPSFKPRP equal to or greater than -0.1? 0.0

Does shrunken log2 fold change meet or surpass -0.1 for RRIRYRPPRLPRPRPRPCCAPRP ? 0.0

hey, is shrunken log2 fold change for this one >= -0.1? RRIRHRPPRLPRPRPRPCYGPRP 0.0

Check if shrunken log2 fold change >= -0.1 (inclusive). Item: RRIRGRPPRLPRPRPRPMMEPRP 1.0

API: above_or_equal(metric=shrunken log2 fold change, cutoff=-0.1) for item RRIRSRPPRLPRPRPRPYQKPRP 0.0

Hello, I need to know if RRIRVRPPRLPRPRPRPRHHPRP has measured shrunken log2 fold change not below -0.1. Thanks! 1.0

Could you please find out whether RRIRARPPRLPRPRPRPVLQPRP has shrunken log2 fold change that meets -0.1 or exceeds it? 1.0

Entry RRIRHRPPRLPRPRPRPMLAPRP : is its shrunken log2 fold change no less than -0.1? 0.0

API: above_or_equal(metric=shrunken log2 fold change, cutoff=-0.1) for item RRIRYRPPRLPRPRPRPINFPRP 0.0

Textbook exercise: given the entry RRIRCRPPRLPRPRPRPKNGPRP , state whether its shrunken log2 fold change is greater than or equal to -0.1. 1.0

Decide: is the reported value of shrunken log2 fold change for RRIRIRPPRLPRPRPRPGYPPRP equal to or greater than -0.1? 0.0

hey, is shrunken log2 fold change for this one >= -0.1? RRIRTRPPRLPRPRPRPNIHPRP 0.0

Test whether the sequence RRIRTRPPRLPRPRPRPWNCPRP records shrunken log2 fold change of -0.1 or higher. 0.0

Given RRIRNRPPRLPRPRPRPDFKPRP , state whether its shrunken log2 fold change is at least -0.1. 1.0

Determine whether measured shrunken log2 fold change meets or exceeds -0.1 for RRIRKRPPRLPRPRPRPSMGPRP 0.0
